These data points were gathered from ChEMBL document CHEMBL3272277.

- experimental-protocol: Antiproliferative activity against MEF after 72 hrs
- Type: cell-based
- experimental-conditions: mouse, MEF cells; read-out: ID50
Overview of recorded GI50 at 72 h for various compounds
Your answer is read as µg/mL, so omit the unit and give the number.

| compound | value-kind | result-units | readout-value |
| --- | --- | --- | --- |
| COc1cccc2c1C(=O)c1c(O)c3c(c(O)c1C2=O)C[C@@](O)(C(C)=O)C[C@@H]3O[C@H]1C[C@H](N)[C@@H](O)[C@H](CO)O1.Cl | GI50 at 72 h | µg/mL | 0.256 |
| COc1cccc2c1C(=O)c1c(O)c3c(c(O)c1C2=O)C[C@@](O)(C(=O)CO)C[C@@H]3O[C@H]1C[C@H](N)[C@@H](O)[C@H](CO)O1 | GI50 at 72 h | µg/mL | 0.05 |
| COc1cccc2c1C(=O)c1c(O)c3c(c(O)c1C2=O)C[C@@](O)(C(=O)CO)C[C@@H]3O[C@H]1C[C@H](N)[C@H](O)[C@H](C)O1.Cl [DOXORUBICIN HYDROCHLORIDE] | GI50 at 72 h | µg/mL | 0.007 |

Please look at the following compound next.
Exam item: Quick one: GI50 at 72 h for COc1cccc2c1C(=O)c1c(O)c3c(c(O)c1C2=O)C[C@@](O)(C(C)=O)C[C@@H]3O[C@H]1C[C@H](N)[C@H](O)[C@H](C)O1 [DAUNORUBICIN] ?
Marked response: 0.009
